# assayedSystem: T1, KRAS G12D peptide on HLA-A*11:01 (human)
# T1 peptide: VVVGADGVGK
# assayProtocol: CD137 by flow cytometry; transduced primary CD4+ and CD8+ T cells, TRAC/TRBC double knockout; G12D peptide titrated (FIG. 3E); full-length, on cells
Recorded EC50 of peptide by entry
# unit: nM | format: bare number

Worked set:
• TCR1 (TCR, V domains shown) Valpha: GDSVTQMEGPVTLSEEAFLTINCTYTATGYPSLFWYVQYPGEGLQLLLKATKADDKGSNKGFEATYRKETTSFHLEKGSVQVSDSAVYFCALSDRVGGARLMFGDGTQLVVKP Vbeta: EADIYQTPRYLVIGTGKKITLECSQTMGHDKMYWYQQDPGMELHLIHYSYGVNSTEKGDLSSESTVSRIRTEHFPLTLESARPSHTSQYLCASSEGLYNEQFFGPGTRLTVL = 64.1
• TCR4 (TCR, V domains shown) Valpha: QKEVEQDPGPLSVPEGAIVSLNCTYSNSAFQYFMWYRQYSRKGPELLMYTYSSGNKEDGRFTAQVDKSSKYISLFIRDSQPSDSATYLCAMGALNSGAGSYQLTFGKGTKLSVIP Vbeta: KAGVTQTPRYLIKTRGQQVTLSCSPISGHRSVSWYQQTPGQGLQFLFEYFSETQRNKGNFPGRFSGRQFSNSRSEMNVSTLELGDSALYLCASSLSSGTGTEAFFGQGTRLTVE = 11.8
• TCR91 (TCR, V domains shown) Valpha: AQKVTQAQTEISVVEKEDVTLDCVYETRDTTYYLFWYKQPPSGELVFLIRRNSFDEQNEISGRYSWNFQKSTSSFNFTITASQVVDSAVYFCALNEGGGSTLGRLYFGRGTQLTVWP Vbeta: DAMVIQNPRYQVTQFGKPVTLSCSQTLNHNVMYWYQQKSSQAPKLLFHYYDKDFNNEADTPDNFQSRRPNTSFCFLDIRSPGLGDAAMYLCATSTGRVYQPQHFGDGTRLSIL = 36.5
• TCR5 (TCR, V domains shown) Valpha: GEDVEQSLFLSVREGDSSVINCTYTDSSSTYLYWYKQEPGAGLQLLTYIFSNMDMKQDQRLTVLLNKKDKHLSLRIADTQTGDSAIYFCAERDAGNNRKLIWGLGTSLAVNP Vbeta: GAGVSQSPRYKVAKRGQDVALRCDPISGHVSLFWYQQALGQGPEFLTYFQNEAQLDKSGLPSDRFFAERPEGSVSTLKIQRTQQEDSAVYLCASSLEGGDTQYFGPGTRLTVL = 7.6
• TCR6 (TCR, V domains shown) Valpha: GQQLNQSPQSMFIQEGEDVSMNCTSSSIFNTWLWYKQDPGEGPVLLIALYKAGELTSNGRLTAQFGITRKDSFLNISASIPSDVGIYFCAGRREGAQKLVFGQGTRLTINP Vbeta: GAGVSQSPRYKVAKRGQDVALRCDPISGHVSLFWYQQALGQGPEFLTYFQNEAQLDKSGLPSDRFFAERPEGSVSTLKIQRTQQEDSAVYLCASSSTLMGVNIQYFGAGTRLSVL = 14.3

Query binder follows.
Request: What value of measured EC50 of peptide is listed for TCR2 (TCR, V domains shown) Valpha: AQTVTQSQPEMSVQEAETVTLSCTYDTSENNYYLFWYKQPPSRQMILVIRQEAYKQQNATENRFSVNFQKAAKSFSLKISDSQLGDTAMYFCAFMYPSQGGSEKLVFGKGMKLTVNP Vbeta: ETGVTQSPTHLIKTRGQQVTLRCSSQSGHNTVSWYQQALGQGPQFIFQYYREEENGRGNFPPRFSGLQFPNYSSELNVNALELDDSALYLCASSSPGFRSYGYTFGSGTRLTVV ?
Result: 10.1
